conditions: a range is the spread between reports
Below: a set of entries, each annotated with reported melting point.

>  <compoundStructure>
Oc1ccc(C(c2ccc(O)cc2)(C(F)(F)F)C(F)(F)F)cc1

>  <melting point>
160 to 162 °C

$$$$
>  <compoundStructure>
Cc1cc(C)c(O)c(C)c1

>  <melting point>
72 to 73 °C

$$$$
>  <compoundStructure>
O=C(NNc1ccccc1)NNc1ccccc1

>  <melting point>
170 to 173 °C

$$$$
>  <compoundStructure>
O=C(O)c1ccoc1

>  <melting point>
122 °C

$$$$
>  <compoundStructure>
CC1=CC(=O)OC1=O

>  <melting point>
7.5 to 8 °C

$$$$
>  <compoundStructure>
CCCC(C)=C(C)C

>  <melting point>
-115 °C

$$$$
